Data origin: PubChem BioAssay

Target: NADPH oxidase 2 (Homo sapiens)
Experiment: NOX2-dependent H2O2 signal modulators, primary screen, NOX inhibitor project, cell-based, HEK293-NOX2, PMA-stimulated, Amplex Red fluorescence (AID 1159); also: test concentration not given here
Details: 45 min, higher = more signal, called active from +8 up or from −8 down
Hi there, I'd appreciate the recorded z-score for every entry that follows.
Response field accepts a number only; no unit should be typed.

Which measured z-score belongs to COC(=O)CC=C[C@@H](C)[C@@H](C=NO[C@H](C)c1cn([C@H](CO)Cc2ccccc2)nn1)NS(=O)(=O)c1ccc(C)cc1 , tested on NADPH oxidase 2 (Homo sapiens)?
0.679

Which measured z-score belongs to CCOC(=O)[C@H](CC(C)C)NC(=O)CCC1CC(OC(=O)NCCc2ccc(F)cc2)CC2(CCCC(COC(=O)NCC3CCCCC3)O2)O1 (stereo not given in full) , tested on NADPH oxidase 2 (Homo sapiens)?
-0.202

Which measured z-score belongs to CCc1cc2c(nc1CC)CCN(CCC(C)=NO[C@H](C)c1cn([C@H](CO)Cc3ccccc3)nn1)C2 , tested on NADPH oxidase 2 (Homo sapiens)?
-0.221

Which measured z-score belongs to CC(CCN1CCCCc2nc(C)c(C)cc21)=NOC[C@@H](C)[C@H](OCc1ccccc1)C(C)C , tested on NADPH oxidase 2 (Homo sapiens)?
-1.86

Which measured z-score belongs to O=C(NN=C1C[C@@H](O)[C@@H](O)[C@@H]2[C@@H]3C(=O)N(C[C@@H]4CCCO4)C(=O)[C@@H]3CC[C@H]12)OCc1ccccc1 , tested on NADPH oxidase 2 (Homo sapiens)?
-0.92

Which measured z-score belongs to CC(C)CON=C1[C@H]2CCn3c(=O)n(Cc4cc5c(cc4Cl)OCO5)c(=O)n3[C@H]2[C@H](O)[C@@H]2O[C@H]12 , tested on NADPH oxidase 2 (Homo sapiens)?
0.42

Which measured z-score belongs to CCOC(=O)[C@H](CC(C)C)NC(=O)CCC1CC(OC(=O)NCCc2ccc(F)cc2)CC2(CCCC(COC(=O)NCC(c3ccccc3)c3ccccc3)O2)O1 (stereo not given in full) , tested on NADPH oxidase 2 (Homo sapiens)?
1.47

Which measured z-score belongs to C#CCCCON=C1C[C@@H](O)[C@@H](O)[C@@H]2[C@@H]3C(=O)N(C(C)(C)C)C(=O)[C@@H]3CC[C@@H]12 , tested on NADPH oxidase 2 (Homo sapiens)?
0.934

Which measured z-score belongs to CO[C@@H]1COC(=O)[C@@H](C)NC(=O)CC=C[C@@H](C)[C@H](NS(=O)(=O)c2ccc(C)cc2)COC(=O)[C@H](C)NC(=O)CC=C[C@H]1C , tested on NADPH oxidase 2 (Homo sapiens)?
0.931

Which measured z-score belongs to CCCCC#C[C@@H]1C=C[C@H](OC(C)=O)[C@@H](COC(C)=O)O1 , tested on NADPH oxidase 2 (Homo sapiens)?
-2.78

Which measured z-score belongs to COC(=O)[C@H](C)NC(=O)CCC1CC(OC(=O)NCc2ccc3c(c2)OCO3)CC2(CCCC(COC(=O)NCC3CCCCC3)O2)O1 (stereo not given in full) , tested on NADPH oxidase 2 (Homo sapiens)?
-0.373

Which measured z-score belongs to C[C@@H]1CC[C@H]2C(=O)O[C@@H](Cc3ccccc3)CN2[C@H]1c1ccc(Br)cc1 , tested on NADPH oxidase 2 (Homo sapiens)?
-0.251

Which measured z-score belongs to O=C1[C@H]2[C@H]3[C@H](O)[C@H](O)CC(=NOCc4ccccc4)[C@@H]3CC[C@H]2C(=O)N1c1ccc(F)cc1F , tested on NADPH oxidase 2 (Homo sapiens)?
-0.409

Which measured z-score belongs to CON=CC[C@@H]1C=C[C@H](OC(C)=O)[C@@H](COC(C)=O)O1 , tested on NADPH oxidase 2 (Homo sapiens)?
0.0851

Which measured z-score belongs to C#CCCCON=C1C[C@@H](O)[C@@H](O)[C@@H]2[C@@H]3C(=O)N(CC)C(=O)[C@@H]3CC[C@@H]12 , tested on NADPH oxidase 2 (Homo sapiens)?
0.275

* * *

Test: HepG2 cell viability effects, profiling panel, calcein-AM fluorescence, 48 h, basal (AID 1164); also: test concentration not given here
Conditions: higher = more signal
Grouping by measured z-score is done with the following cut points: class 0 (below -0.7), class 1 (-0.7 to below 0.1), class 2 (0.1 or more)

Kindly state the category for this compound: C#CCCCON=C1C[C@@H](O)[C@@H](O)[C@@H]2[C@@H]3C(=O)N(c4ccc(F)cc4F)C(=O)[C@@H]3CC[C@@H]12
class 0

Kindly state the category for this compound: CCOC(=O)NN=C1C[C@@H](O)[C@@H](O)[C@@H]2[C@@H]3C(=O)N([C@@H](C)c4ccccc4)C(=O)[C@@H]3CC[C@@H]12
class 1

Kindly state the category for this compound: CCOC(=O)NN=C1C[C@@H](O)[C@@H](O)[C@@H]2[C@@H]3C(=O)N(c4cccc(Oc5ccccc5)c4)C(=O)[C@@H]3CC[C@H]12
class 1

Kindly state the category for this compound: CCOC(=O)[C@H](CC(C)C)NC(=O)CCC1CC(OC(=O)NCCc2ccc(F)cc2)CC2(CCCC(COC(=O)NCCOc3ccccc3)O2)O1 (stereo not given in full)
class 0

Kindly state the category for this compound: CC(C)=CCCC(C)=CCON=C1C[C@@H](O)[C@@H](O)[C@@H]2[C@@H]3C(=O)N(C(C)(C)C)C(=O)[C@@H]3CC[C@@H]12
class 2

Kindly state the category for this compound: CCOC(=O)[C@H](Cc1ccccc1)NC(=O)CCC1CC(OC(=O)NCc2ccc3c(c2)OCO3)CC2(CCCC(COC(=O)NCCc3ccccc3OC)O2)O1 (stereo not given in full)
class 1

Kindly state the category for this compound: COC(=O)CC=C[C@@H](C)[C@@H]1C=C[C@H](O)[C@@H](CO)O1
class 1

Kindly state the category for this compound: COc1cccc([C@@H]2Oc3ccc(OC)cc3C(=O)[C@H]2O)c1
class 0

Kindly state the category for this compound: CCOC(=O)[C@H](Cc1ccccc1)NC(=O)CCC1CC(OC(=O)NCc2cccc3ccccc23)CC2(CCCC(COC(=O)NCC(c3ccccc3)c3ccccc3)O2)O1 (stereo not given in full)
class 0

Kindly state the category for this compound: COc1ccc(COC(=O)NN=C2C[C@@H](O)[C@@H](O)[C@@H]3[C@@H]4C(=O)N(C5CCCCC5)C(=O)[C@@H]4CC[C@H]23)cc1
class 1

Kindly state the category for this compound: COC(=O)[C@H](C)NC(=O)CCC1CC(OC(=O)NCCc2ccc(F)cc2)CC2(CCCC(COC(=O)NCc3cccc(C(F)(F)F)c3)O2)O1 (stereo not given in full)
class 0

Kindly state the category for this compound: O=C1C=C[C@@H](O)[C@@H]2[C@@H]3C(=O)N(C[C@@H]4CCCO4)C(=O)[C@@H]3CC[C@@H]12
class 2

Kindly state the category for this compound: CC(C)=NO[C@H](C)c1cn([C@H](CO)Cc2ccccc2)nn1
class 1

Kindly state the category for this compound: CC(CCN1CCCc2nc(C)c(C)cc21)=NOC(C)CN1CCCCc2nc(C)c(C)cc21 (stereo not given)
class 1

Kindly state the category for this compound: CC(C)CON=C1C[C@@H](O)[C@@H](O)[C@@H]2[C@@H]3C(=O)N(C(C)(C)C)C(=O)[C@@H]3CC[C@H]12
class 1

Kindly state the category for this compound: O=C1[C@H]2[C@H]3[C@H](O)[C@H](O)CC(=NOCc4ccccc4)[C@@H]3CC[C@H]2C(=O)N1c1ccc(F)cc1F
class 2

Kindly state the category for this compound: C#CCCCON=C1C[C@@H](O)[C@@H](O)[C@@H]2[C@@H]3C(=O)N(CCC(=O)OCC)C(=O)[C@@H]3CC[C@H]12
class 2

Kindly state the category for this compound: CC=CC1=C(CO)C(=O)[C@@H]2O[C@@H]2C1=O
class 0

Kindly state the category for this compound: O=C1CCCC=C1C(O)CCCCBr (stereo not given)
class 0

Kindly state the category for this compound: CC(CCN1CCCc2nc(C)c(C)cc21)=NO[C@@H](C)c1cc(-c2c(C)cc(C)cc2C)no1
class 2

Kindly state the category for this compound: COc1cccc([C@H]2Oc3ccc(OC)cc3C(=NOC(C)CN3CCCCc4nc(C)c(C)cc43)[C@@H]2O)c1 (stereo not given in full)
class 1

Kindly state the category for this compound: CC(CCN1CCc2nc(-c3ccccc3)c(-c3ccccc3)cc2C1)=NOC[C@@H](O)[C@H]1O[C@@H]2OC(C)(C)O[C@@H]2[C@H]1O
class 2

Kindly state the category for this compound: CCCNC(=O)OC[C@H]1O[C@H](CCON=C(C)CCN2CCCc3nc(C)c(C)cc32)C=C[C@@H]1Oc1ccc(OC)cc1
class 1

Kindly state the category for this compound: O=C(NN=C1C[C@@H](O)[C@@H](O)[C@@H]2[C@@H]3C(=O)N(C4CCCCC4)C(=O)[C@@H]3CC[C@H]12)OCc1ccccc1
class 0

Kindly state the category for this compound: CCOC(=O)[C@H](CC(C)C)NC(=O)CCC1CC(OC(=O)NCc2cccc3ccccc23)CC2(CCCC(COC(=O)NCc3cccc(C(F)(F)F)c3)O2)O1 (stereo not given in full)
class 2

Kindly state the category for this compound: O=C1C[C@@H](O)[C@@H](O)[C@@H]2[C@@H]3C(=O)N(C[C@@H]4CCCO4)C(=O)[C@@H]3CC[C@H]12
class 2

Kindly state the category for this compound: COc1ccc(C#C[C@@H]2C=C[C@H](OC(C)=O)[C@@H](COC(C)=O)O2)cc1
class 2

Kindly state the category for this compound: CC(C)=CCCC(C)=CCON=C1C[C@@H](O)[C@@H](O)[C@@H]2[C@@H]3C(=O)N(Cc4ccccc4)C(=O)[C@@H]3CC[C@H]12
class 0
